system_name: SV2AEM (Homo sapiens, UniProt Q7L0J3)
Construct: expressed in transfected cells; host or cells: HEK293 (ATCC CRL-1573), crude membranes (transient transfection or baculovirus)
Sequence (Q7L0J3 141-742): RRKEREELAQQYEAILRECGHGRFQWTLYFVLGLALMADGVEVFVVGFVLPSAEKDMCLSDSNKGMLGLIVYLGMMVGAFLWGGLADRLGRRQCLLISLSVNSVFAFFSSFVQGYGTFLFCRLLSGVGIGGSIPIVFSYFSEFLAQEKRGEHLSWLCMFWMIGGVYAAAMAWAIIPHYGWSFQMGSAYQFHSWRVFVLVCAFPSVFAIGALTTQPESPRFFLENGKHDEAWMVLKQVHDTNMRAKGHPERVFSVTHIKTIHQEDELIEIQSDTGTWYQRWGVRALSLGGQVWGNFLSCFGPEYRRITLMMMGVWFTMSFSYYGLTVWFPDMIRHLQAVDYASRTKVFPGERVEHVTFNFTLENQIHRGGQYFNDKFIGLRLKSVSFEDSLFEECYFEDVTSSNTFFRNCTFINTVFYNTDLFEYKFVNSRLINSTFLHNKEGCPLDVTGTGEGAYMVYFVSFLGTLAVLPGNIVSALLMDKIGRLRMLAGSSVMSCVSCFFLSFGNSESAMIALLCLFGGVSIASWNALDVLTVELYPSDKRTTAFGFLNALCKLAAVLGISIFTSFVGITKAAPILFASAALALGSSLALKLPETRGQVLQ
assay_info: Competitive displacement of 10 nM 3H-UCB-J, SV2AEM membranes (Fig. 1A)
Format: binding
experimental_conditions: radioligand displacement, 10 nM 3H-UCB-J; padsevonil sentence prints SV2A (Fig. 1)
measurement_kind: IC50 (nM)
Hi! Could you send only the number? It should be in nM, unit omitted.

Request the reported IC50 associated with Cc1cnccc1CN1C[C@@H](c2cc(F)c(F)c(F)c2)CC1=O
4.1
